- System: Sam68 (KHDRBS1)
- assay-text: Sam68 small-molecule binders, primary screen, biochemical, small-molecule microarray, 635 nm fluorescence (AID 1125);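 note: score merges 667 nm channel intensity with signal to noise over triplicate slides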
- assay-conditions: small-molecule microarray binding, higher = more signal
measurement-name: composite z-score

Look up composite z-score: CC(=O)OC[C@H]1O[C@H](CC=NO[C@@H](C)c2cn([C@H](CO)Cc3ccccc3)nn2)C=C[C@@H]1OC(C)=O
0.987

Returns the measured composite z-score for the input compound. Input: O=C1[C@H]2CCn3c(=O)n(Cc4cc5c(cc4Cl)OCO5)c(=O)n3[C@H]2[C@H](O)[C@@H]2O[C@H]12
-0.435

Returns the measured composite z-score for the input compound. Input: COC(=O)[C@@H]1CC[C@H](C)[C@@H](c2ccc(C)cc2)N1C(=O)c1ccc(C=NOC[C@@H](O)[C@H]2O[C@@H]3OC(C)(C)O[C@@H]3[C@H]2O)cc1
1.02

I would be grateful if you could share the reported composite z-score for O=C1C[C@H](c2ccccc2)[C@H](c2ccc(Br)cc2)O1 .
-0.179

So what does the record say about composite z-score for COC(OC)[C@@H](C)[C@H](OC)[C@@H](C)[C@H](OC)c1ccccc1 ?
-1.16

Can you share its composite z-score? I mean this compound: C#CCCCON=C1[C@H]2CCn3c(=O)n([C@@H](CC)c4ccccc4)c(=O)n3[C@H]2[C@H](O)[C@@H]2O[C@H]12
0.113

# get_value(readout='composite z-score', item= C[C@@H](c1ccccc1)N1C(=O)[C@H]2[C@H]3[C@H](O)[C@H](O)CC(=NOCc4ccccc4)[C@@H]3CC[C@H]2C1=O )
-0.105

Please give the measured composite z-score for this compound: COc1ccc(O[C@H]2C=C[C@@H](c3ccccc3)O[C@@H]2COC(=O)CCC(C)=NOC[C@@H](O)COCc2ccco2)cc1
-0.875

Form field: reported composite z-score of CC(=O)OC[C@H]1O[C@@H](ON=C(C)C)[C@H](OC(C)=O)[C@@H](OC(C)=O)[C@@H]1OC(C)=O
-0.743
